Data credit: ChEMBL document CHEMBL3739403

molecular target: Prothrombin (Homo sapiens, UniProt P00734); assay: Inhibition of thrombin (unknown origin)
# IC50 listing for each entry below
Answer with a number only, understood to be in nM.

Observe how each entry below is paired with its result.
| SMILES INPUT | OUTPUT UNIT | IC50 |
| --- | --- | --- |
| CCn1c(CNc2ccc(C(=N)N)cc2)nc2cc(C(=O)N(CCC(=O)O)c3ccccc3C(F)(F)F)ccc21 | nM | 6.17 |
| CCCCn1c(CNc2ccc(C(=N)N)cc2)nc2cc(C(=O)N(CCC(=O)O)c3ccc(F)c(Cl)c3)ccc21 | nM | 39.8 |
| Cn1c(CNc2ccc(C(=N)N)cc2F)nc2cc(C(=O)N(CCC(=O)O)c3ccc(F)c(Cl)c3)ccc21 | nM | 11.5 |

So what IC50 did CCn1c(CNc2ccc(C(=N)N)cc2)nc2cc(C(=O)N(CCC(=O)O)c3ccc(F)cc3)ccc21 get with Prothrombin (Homo sapiens, UniProt P00734)?
4.27
